- EXPERIMENT_NOTES: Probe fluorescence ratio response to stearic acid relative to ADIFAB2
- Format: binding
- RECORDED_CONDITIONS: response relative to ADIFAB2
Consider the following molecules; for each one, report its DR/DR SA.
// keep it numeric: no unit symbol after the value

State, in one line, measured DR/DR SA of 14R 18L 73L 117D 72A (protein, listed as Rattus norvegicus, PEPTIDE (1)...(131) wild-type rat intestinal fatty acid binding protein) AFDGTWKVDRNENREKFLEKMGINVVKRKLGAHDNLKLTITQEGNKFTVKESSNFRNIDVVFELGVDFAYSALDGTELTGTWTMEGNKLVGKFKRVDNGKELIAVREISGNELIQTDTYEGVEAKRIFKKE 0.213

In one line, give reported DR/DR SA of the entry 38Q 106W 117A 72A (protein, listed as Rattus norvegicus, PEPTIDE (1)...(131) wild-type rat intestinal fatty acid binding protein) AFDGTWKVDRNENYEKFMEKMGINVVKRKLGAHDNLKQTITQEGNKFTVKESSNFRNIDVVFELGVDFAYSAADGTELTGTWTMEGNKLVGKFKRVDNGKELIAVWEISGNELIQTATYEGVEAKRIFKKE . 0.281

Give reported DR/DR SA value for 72G 74F (protein, listed as Rattus norvegicus, PEPTIDE (1)...(131) wild-type rat intestinal fatty acid binding protein) AFDGTWKVDRNENYEKFMEKMGINVVKRKLGAHDNLKLTITQEGNKFTVKESSNFRNIDVVFELGVDFAYSGAFGTELTGTWTMEGNKLVGKFKRVDNGKELIAVREISGNELIQTYTYEGVEAKRIFKKE 0.669
